These measurements were taken from PubChem BioAssay.

Assay: change in splice reporter luminescence, either direction, cell-based, HEK293, spliceosome inhibition project, primary screen (AID 1101);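 further: HEK293 cells carrying a splicing-competent luciferase reporter gene; test concentration not given here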
Conditions: HEK293 splicing luciferase reporter, 24 h, higher = more signal, called active from +8 up or from −8 down
ASSAY ENDPOINT: z-score

- C[C@@H]1NC(=O)[C@@H](Cc2ccccc2)NC(=O)[C@@]23C(=O)N[C@@H](Cc4ccccc4)C2[C@H](C)[C@@]2(C)O[C@H]2C3/C=C/C/C=C\CNC1=O (some centres undefined): 0.138
- CCCC#C[Si](O[C@H](CC)c1cn([C@H](C)c2ccccc2)nn1)(C(C)C)C(C)C: -0.383
- C=CCC(OC(C)=O)[C@@H]1[C@@H](N(Cc2cccc3ccccc23)C(=O)Cc2ccc(F)cc2)c2cc(OCCCO)ccc2N1C(=O)c1ccc2ccccc2c1 (some centres undefined): -0.527
- COc1ccc(CCNC(=O)[C@@H]2c3ccccc3C(=O)N(C3CCCCC3)[C@H]2c2ccc(CO)cc2)cc1: 0.43
- CCN(CC)c1ccc(N2CC=CC34O[C@@H]5/C=C\CCCOC(=O)C5[C@H]3C(=O)N(C(C)CO)[C@@H]4C2=O)cc1 (some centres undefined): -0.0084
- CCOC(=O)C[C@H]1[C@H](OC(=O)c2ccccc2-c2ccccc2)[C@@H](NC(=O)c2ccc3ccccc3c2)c2cc(OCCCO)ccc2N1C(=O)c1ccccc1: -0.314
- [N-]=[N+]=NCc1ccccc1C[C@@]1(C(N)=O)N=C(c2ccc(OCCCO)cc2)O[C@@H]1c1ccccc1: -1.01
- C=CCNC(=O)[C@@H]1[C@H]2C(=O)O[C@H](c3ccccc3)[C@H](c3ccccc3)N2[C@H](c2ccccc2OCCO)[C@@]12C(=O)N(C(=O)OCCOC)c1ccc(C#CC3(O)CCCCCC3)cc12: -0.692
- CCCCN1CC=CC23O[C@@H]4/C=C\CCCOC(=O)C4[C@H]2C(=O)N(CCO)[C@@H]3C1=O (some centres undefined): -0.817
- CC(=O)NCCCC[C@@H]1NC(=O)[C@@H]2C[C@H](C(=O)NCCCCCN)[C@H](c3ccc(O)cc3)N2C1=O: 0.194
- C=CCNC(=O)[C@@H]1[C@H]2C(=O)O[C@H](c3ccccc3)[C@H](c3ccccc3)N2[C@H](c2ccccc2OCCO)[C@@]12C(=O)Nc1ccc(C#CCCO)cc12: -1.06
- C=C(/C(=C/C[C@H](OC(=O)c1ccncc1)c1ccc(CO)o1)c1cnc2ccccc2c1)C(C)C: 0.984
- NC(=O)[C@H]1[C@@H]2C(=O)O[C@@H](c3ccccc3)[C@@H](c3ccccc3)N2[C@@H](c2ccc(OCCO)cc2)[C@]12C(=O)Nc1ccc(C#CCCO)cc12: 0.728
- CCCC=C(CCC)[C@@H](NP(=O)(c1ccccc1)c1ccccc1)c1ccc(-c2ccccc2)cc1: -2.98
